// data source = patent US20210198277A1

Some compounds, each annotated with its measured IC50.
Target: EHMT2 (Homo sapiens)
Construct: host or cells: MDA-MB-231
Sequence (Q96KQ7 1-1210): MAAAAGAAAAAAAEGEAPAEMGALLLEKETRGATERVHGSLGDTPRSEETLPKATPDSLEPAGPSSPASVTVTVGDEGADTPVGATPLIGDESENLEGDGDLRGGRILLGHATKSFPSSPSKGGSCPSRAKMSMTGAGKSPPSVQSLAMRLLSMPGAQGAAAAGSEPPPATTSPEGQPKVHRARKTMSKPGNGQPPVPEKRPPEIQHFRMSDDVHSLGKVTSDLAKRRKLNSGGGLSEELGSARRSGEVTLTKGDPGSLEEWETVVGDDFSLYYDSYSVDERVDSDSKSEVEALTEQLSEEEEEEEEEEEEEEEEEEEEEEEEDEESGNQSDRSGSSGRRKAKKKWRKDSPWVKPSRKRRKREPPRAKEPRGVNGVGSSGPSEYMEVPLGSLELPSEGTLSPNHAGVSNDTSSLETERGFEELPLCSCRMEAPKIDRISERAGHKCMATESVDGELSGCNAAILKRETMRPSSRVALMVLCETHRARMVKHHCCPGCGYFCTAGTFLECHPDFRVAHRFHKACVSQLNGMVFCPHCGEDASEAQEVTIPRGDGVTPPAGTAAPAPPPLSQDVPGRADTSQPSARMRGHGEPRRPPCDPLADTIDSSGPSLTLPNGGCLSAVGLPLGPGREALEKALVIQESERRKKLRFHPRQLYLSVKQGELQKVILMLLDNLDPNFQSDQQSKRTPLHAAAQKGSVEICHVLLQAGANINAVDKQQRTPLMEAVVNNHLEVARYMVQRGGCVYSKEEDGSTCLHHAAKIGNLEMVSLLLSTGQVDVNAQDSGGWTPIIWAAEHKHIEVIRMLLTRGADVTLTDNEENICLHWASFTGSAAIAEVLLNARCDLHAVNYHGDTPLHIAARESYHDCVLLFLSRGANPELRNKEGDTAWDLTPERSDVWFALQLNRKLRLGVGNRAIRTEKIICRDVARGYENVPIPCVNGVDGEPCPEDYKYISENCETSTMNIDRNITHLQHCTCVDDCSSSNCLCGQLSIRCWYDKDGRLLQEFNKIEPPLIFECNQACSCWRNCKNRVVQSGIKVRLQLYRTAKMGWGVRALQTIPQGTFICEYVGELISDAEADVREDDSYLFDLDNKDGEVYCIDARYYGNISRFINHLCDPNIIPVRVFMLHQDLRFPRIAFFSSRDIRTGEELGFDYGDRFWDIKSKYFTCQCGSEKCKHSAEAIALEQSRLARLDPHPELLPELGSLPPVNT
Assay: MDA-MB-231 H3K9me2 in-cell Western assay (EHMT2 ICW)
Format: cell-based
Settings: H3K9me2 in-cell Western, MDA-MB-231 cells; read-out: EHMT2 ICW (IC50 μM)

# count of solved cases: 3
What value of IC50 has been reported for the following compound? `CNc1nc(C2CCN(C(C)=O)CC2)c2cc(OC)c(OCCCN3CCCC3)cc2n1`
> 10 µM

Repeat with `CNc1cc(C)nc(Nc2ccc(OC)c(OC[C@@H]3CCN(C4(C)CC4)C3)c2)n1`
0.1 to 1 µM

Repeat with `CCc1ccc(Nc2nc(C)cc(NC)n2)cc1OCCCN1CCCC1`
0.1 to 1 µM

Further cases:
What value of IC50 has been reported for the following compound? `CNc1cc(C)nc(Nc2ccc(OC)c(OCCCN3CC4(CC4)C3)c2)n1`
> 10 µM
